- System: DMPK
- assay-explanation: DMPK knockdown by transfected antisense oligonucleotides in DM1 C15 myotubes at 0.5 nM and 50 nM
- Type: cell-based
- condition-label: 0.5 nM oligonucleotide, 72 hours, qPCR, relative to vehicle control
- Procedure: Two hundred and thirty-six oligonucleotides for targeting DMPK were generated using in silico analysis. Each individual oligonucleotide was evaluated for their ability to target DMPK in cellulo at two doses—0.5 nM (low dose) and 50 nM (high dose). Briefly, DM1 C15 immortalized myoblasts were cultured in T-75 flasks until near confluency (˜80% confluent). Myoblasts were then disrupted with trypsin and seeded into 96-well microplates at a density of 50,000 cells/well. […]

substance: 371 (GUGGAAUCCGCGUAGAAGGG; chemistry not given here) [compound 371]
Percent DMPK Reduction: 30.55%
//
substance: 299 (GCAGGAUGUUGUCGGGUUUG; chemistry not given here) [compound 299]
Percent DMPK Reduction: 44.39%
//
substance: 250 (CGGAUGGCCUCCAUCUCCCG; chemistry not given here) [compound 250]
Percent DMPK Reduction: 28.92%
//
substance: 332 (AAUCUCCGCCAGGUAGAAGC; chemistry not given here) [compound 332]
Percent DMPK Reduction: 35.85%
//
substance: 261 (GAAGUCGGCCAGGCGGAUGU; chemistry not given here) [compound 261]
Percent DMPK Reduction: 18.36%
//
substance: 274 (UGCCCAUCCACGUCAGGGCC; chemistry not given here) [compound 274]
Percent DMPK Reduction: 13.63%
//
substance: 249 (AAACUUGCUCAGCAGUGUCA; chemistry not given here) [compound 249]
Percent DMPK Reduction: 30.85%
//
substance: 315 (GCUCCUGGGCGGCGCCAGAC; chemistry not given here) [compound 315]
Percent DMPK Reduction: 8.52%
//
substance: 247 (GGGCCCGGAUCACAGGACUG; chemistry not given here) [compound 247]
Percent DMPK Reduction: 57.97%
//
substance: 349 (UUUGCCCAUCCACGUCAGGG; chemistry not given here) [compound 349]
Percent DMPK Reduction: 32.79%
//
substance: 335 (UCCCCAAACUUGCUCAGCAG; chemistry not given here) [compound 335]
Percent DMPK Reduction: 5.73%
//
substance: 343 (CGUAGUUGACUGGCGAAGUU; chemistry not given here) [compound 343]
Percent DMPK Reduction: 25.26%
//
substance: 259 (CAGCUGCGUGAUCCACCGCC; chemistry not given here) [compound 259]
Percent DMPK Reduction: 19.03%
//
substance: 365 (UCUCAGUGCAUCCAAAACGU; chemistry not given here) [compound 365]
Percent DMPK Reduction: 10.88%
//
substance: 352 (AAAUACCGAGGAAUGUCGGG; chemistry not given here) [compound 352]
Percent DMPK Reduction: 11.25%
//
substance: 296 (AUCUCCGCCAGGUAGAAGCG; chemistry not given here) [compound 296]
Percent DMPK Reduction: 42.37%
//
substance: 340 (GUACAGGUAGUUCUCAUCCU; chemistry not given here) [compound 340]
Percent DMPK Reduction: 31.52%
//
substance: 375 (CGGCUCAGGCUCUGCCGGGU; chemistry not given here) [compound 375]
Percent DMPK Reduction: 17.97%
//
substance: 338 (CGGACGGCCCGGCUUGCUGC; chemistry not given here) [compound 338]
Percent DMPK Reduction: 5.42%
//
substance: 374 (CCGCUCCCCAAACUUGCUCA; chemistry not given here) [compound 374]
Percent DMPK Reduction: 0.28%
//
substance: 354 (AGACAAUAAAUACCGAGGAA; chemistry not given here) [compound 354]
Percent DMPK Reduction: 29.37%
//
substance: 291 (AUACUCCAUGACCAGGUACA; chemistry not given here) [compound 291]
Percent DMPK Reduction: 23.07%
//
substance: 319 (ACACCUGGCCCGUCUGCUUC; chemistry not given here) [compound 319]
Percent DMPK Reduction: 33.00%
//
substance: 341 (AGGGCGUCUGCCCAUAGAAC; chemistry not given here) [compound 341]
Percent DMPK Reduction: 13.23%
//
substance: 361 (GCCAUGACAAUCUCCGCCAG; chemistry not given here) [compound 361]
Percent DMPK Reduction: 30.96%

* * *

- Tested on: DMPK
- assay-explanation: DMPK knockdown by transfected antisense oligonucleotides in DM1 C15 myotubes at 0.5 nM and 50 nM
- Assay type: cell-based
- condition-label: 0.5 nM oligonucleotide, 72 hours
measured-endpoint: Percent DMPK Reduction (%)

substance: 472 (AAGGGAUGUGUCCGGAAGUC; chemistry not given here) [compound 472]
obs-value: 10.37
//
substance: 411 (UUGCCCAUCCACGUCAGGGC; chemistry not given here) [compound 411]
obs-value: 22.23
//
substance: 394 (GAGCCUCUGCCUCGCGUAGU; chemistry not given here) [compound 394]
obs-value: 18.77
//
substance: 438 (UCUAGGGUUCAGGGAGCGCG; chemistry not given here) [compound 438]
obs-value: 21.81
//
substance: 418 (GUAGUUGACUGGCGAAGUUC; chemistry not given here) [compound 418]
obs-value: 7.50
//
substance: 450 (ACAGAACAACGGCGAACAGG; chemistry not given here) [compound 450]
obs-value: 2.07
//
substance: 474 (AGUCGGCCAGGCGGAUGUGG; chemistry not given here) [compound 474]
obs-value: 6.15
//
substance: 425 (ACCAGGUACAGGUAGUUCUC; chemistry not given here) [compound 425]
obs-value: 16.09
//
substance: 433 (GCGGAUGGCCUCCAUCUCCC; chemistry not given here) [compound 433]
obs-value: 21.25
//
substance: 404 (CUCUGCCUCGCGUAGUUGAC; chemistry not given here) [compound 404]
obs-value: 16.61
//
substance: 447 (CAUCCAAAACGUGGAUUGGG; chemistry not given here) [compound 447]
obs-value: 19.12
//
substance: 444 (GCGUCACCUCGGCCUCAGCC; chemistry not given here) [compound 444]
obs-value: 20.02
//
substance: 469 (CAGGGAAAGCGCCUCCGAUA; chemistry not given here) [compound 469]
obs-value: 11.10
//
substance: 479 (UUGUAGUGGACGAUCUUGCC; chemistry not given here) [compound 479]
obs-value: 17.22
//
substance: 393 (UUGGCCGGCGUGGGCCACCA; chemistry not given here) [compound 393]
obs-value: -3.19
//
substance: 478 (CCAGCGGCAGAGAGAGGUGC; chemistry not given here) [compound 478]
obs-value: 3.23
//
substance: 392 (UGCCUGCAGCAACUCCAUCC; chemistry not given here) [compound 392]
obs-value: 13.99
//
substance: 464 (UCCUUGUAGUGGACGAUCUU; chemistry not given here) [compound 464]
obs-value: 12.96
//
substance: 400 (UGACCAGGUACAGGUAGUUC; chemistry not given here) [compound 400]
obs-value: 22.00
//
substance: 428 (UUGAUGUCCCUGUGCACGU; chemistry not given here) [compound 428]
obs-value: 6.92
//
substance: 454 (GCAGAGAGAGGUGCUCCUUG; chemistry not given here) [compound 454]
obs-value: 17.29
//
substance: 386 (CUCAGUGCAUCCAAAACGUG; chemistry not given here) [compound 386]
obs-value: 7.65
//
substance: 476 (AGCGUCACCUCGGCCUCAGC; chemistry not given here) [compound 476]
obs-value: 22.10
//
substance: 378 (GGAUGUUGUCGGGUUUGAUG; chemistry not given here) [compound 378]
obs-value: 4.26
//
substance: 432 (UGCCUCGCGUAGUUGACUGG; chemistry not given here) [compound 432]
obs-value: 11.03
//
substance: 449 (CCUCUGCCUCGCGUAGUUGA; chemistry not given here) [compound 449]
obs-value: 7.39
//
substance: 391 (UCACCAACACGUCCCUCUCC; chemistry not given here) [compound 391]
obs-value: 47.12
//
substance: 452 (CGGCCUCAGCCUCUGCCGCA; chemistry not given here) [compound 452]
obs-value: 6.71
//
substance: 463 (AGGUAGUUCUCAUCCUGGAA; chemistry not given here) [compound 463]
obs-value: 7.36
//
substance: 424 (CCAUUCACCAACACGUCCCU; chemistry not given here) [compound 424]
obs-value: 39.26
//
substance: 420 (ACAAUCUCCGCCAGGUAGAA; chemistry not given here) [compound 420]
obs-value: 19.09
//
substance: 466 (GUCCAGCAGGAUGUGUCGG; chemistry not given here) [compound 466]
obs-value: 30.00
//
substance: 423 (GGCUCAGGCUCUGCCGGGUG; chemistry not given here) [compound 423]
obs-value: 7.38

* * *

We begin with a simple list: items and their reported Percent DMPK Reduction.
- System: DMPK
- assay-explanation: DMPK knockdown by transfected antisense oligonucleotides in DM1 C15 myotubes at 0.5 nM and 50 nM
- Format: cell-based
- condition-label: 50 nM oligonucleotide, 72 hours

substance: 425 (ACCAGGUACAGGUAGUUCUC; chemistry not given here) [compound 425]
assay-target: DMPK
readout-unit: %
Percent DMPK Reduction: 76.96
--
substance: 403 (UCUCCGCCAGGUAGAAGCGC; chemistry not given here) [compound 403]
assay-target: DMPK
readout-unit: %
Percent DMPK Reduction: 66.52
--
substance: 418 (GUAGUUGACUGGCGAAGUUC; chemistry not given here) [compound 418]
assay-target: DMPK
readout-unit: %
Percent DMPK Reduction: 45.33
--
substance: 450 (ACAGAACAACGGCGAACAGG; chemistry not given here) [compound 450]
assay-target: DMPK
readout-unit: %
Percent DMPK Reduction: 55.96
--
substance: 476 (AGCGUCACCUCGGCCUCAGC; chemistry not given here) [compound 476]
assay-target: DMPK
readout-unit: %
Percent DMPK Reduction: 64.70
--
substance: 467 (AGCUCCCGCAGCGUCACCUC; chemistry not given here) [compound 467]
assay-target: DMPK
readout-unit: %
Percent DMPK Reduction: 80.40
--
substance: 381 (UAGUUCUCAUCCUGGAAGGC; chemistry not given here) [compound 381]
assay-target: DMPK
readout-unit: %
Percent DMPK Reduction: 43.88
--
substance: 383 (CGGGCCCGGAUCACAGGACU; chemistry not given here) [compound 383]
assay-target: DMPK
readout-unit: %
Percent DMPK Reduction: 67.11
